Data provenance: paper PMC9784833

Biological target: alpha-amylase (Homo sapiens)
Sequence (P04746 16-511): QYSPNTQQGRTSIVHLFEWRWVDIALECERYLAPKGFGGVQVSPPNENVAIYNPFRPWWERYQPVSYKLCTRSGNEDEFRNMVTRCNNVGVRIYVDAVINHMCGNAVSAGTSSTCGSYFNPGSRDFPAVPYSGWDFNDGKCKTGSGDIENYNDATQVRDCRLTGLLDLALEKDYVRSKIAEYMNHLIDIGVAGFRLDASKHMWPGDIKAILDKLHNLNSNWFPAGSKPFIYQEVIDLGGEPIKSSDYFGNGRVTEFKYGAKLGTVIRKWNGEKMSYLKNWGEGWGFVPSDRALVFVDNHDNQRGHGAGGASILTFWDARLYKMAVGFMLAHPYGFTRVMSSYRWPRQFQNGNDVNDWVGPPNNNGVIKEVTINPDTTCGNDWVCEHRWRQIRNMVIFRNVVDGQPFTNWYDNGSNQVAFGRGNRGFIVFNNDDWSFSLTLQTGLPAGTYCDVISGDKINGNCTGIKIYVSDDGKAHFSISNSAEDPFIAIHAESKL
pIC50: −log10 of the molar value.
Property Measured: pIC50

molecule="O=C(c1ccc(O)c(O)c1)c1c(O)cc(O)cc1O[C@@H]1O[C@H](CO)[C@@H](O)[C@H](O)[C@H]1O [Compound 4, Rhodanthenone]" experimental_target="alpha-amylase (Homo sapiens)" number=4.98
molecule="CC(C)=CCc1c(O)cc2oc3c(/C=C\\C(C)(C)O)c(O)c(O)c(CC=C(C)C)c3c(=O)c2c1O [Compound 30, Mangostanaxanthone VI]" experimental_target="alpha-amylase (Homo sapiens)" number=4.66

A: O=C1c2c(O)cc(O)c([C@@H]3O[C@H](CO)[C@@H](O)[C@H](O)[C@H]3O)c2O[C@H](c2ccc(O)cc2)[C@H]1O [Compound 5, Aromadendrin-8-C-glucoside]
B: COc1c(O)cc2oc3cc(O)c(CC=C(C)C)c(O)c3c(=O)c2c1CC=C(C)C [Compound 13, α-Mangostin]
Between these two entries, A and B , state which has the higher pIC50. Kindly state the label of the option you pick.
A
(A: 5.08, B: 4.36)

a: Oc1cc(O)c2c(c1)O[C@H](c1ccc(O)c(O)c1)[C@H](O)C2 [Compound 6, Epicatechin]
b: O=C(c1cccc(O)c1)c1c(O)cc(O)cc1O[C@@H]1O[C@H](CO)[C@@H](O)[C@H](O)[C@H]1O [Compound 3]
Quick one: lower pIC50, a or b ? Kindly state the label of the option you pick.
b

* * *

pIC50: −log10 of the molar value.
Observed pIC50 values for UniProt:P04746 are listed in what follows.
Property Measured: pIC50

structure_as_smiles=CC(C)=CCc1c(O)cc2oc3c(O)c(O)c(O)c(CC=C(C)C)c3c(=O)c2c1O number=4.95

A: CC(C)=CCc1c(O)c(O)c(/C=C\C(C)(C)O)c2c(=O)c3c(O)c(/C=C\C(C)(C)O)c(O)cc3oc12
B: CC(C)=CCc1c(O)cc2oc3c(CC=C(C)C)c(O)c4c(c3c(=O)c2c1O)C=CC(C)(C)O4
Quick one: lower pIC50, A or B ? Kindly state the label of the option you pick.
B
(B: 4.69, A: 4.92)
